# Method notes: in vitro
# Condition summary: human, cell viability (% of DMSO control), Concentration 0.0411523
Measurement kind: viability (%)
Answer with a number only, understood to be in %.

# Compound, Unit text, Value
rows = [
    ("CCN(CC)CCCC(C)Nc1ccnc2cc(Cl)ccc12 (centres unmarked) [Chloroquine]", "%", 104),
]

Turning now to a further record.
Task item: Need viability of CCC(CC)COC(=O)[C@H](C)N[P@](=O)(OC[C@H]1O[C@@](C#N)(c2ccc3c(N)ncnn23)[C@H](O)[C@@H]1O)Oc1ccccc1 [Remdesivir] , thanks.
Reply: 102

----------
# Method notes: in vitro
# Condition summary: human, CC50 (µM) Replicate 2
Measurement kind: CC50

Some entries whose results are on file:
# Compound, CC50
records = [
    ("CCOC(=O)/C=C/[C@H](C[C@@H]1CCNC1=O)NC(=O)[C@@H](CC(=O)[C@@H](NC(=O)c1cc(C)on1)C(C)C)Cc1ccc(F)cc1", "> 50 µM"),
    ("CC#CC(=O)N1CC[C@@H](n2c(=O)n(-c3ccc(Oc4ccccc4)cc3)c3c(N)ncnc32)C1", "> 50 µM"),
]

Task item: Given the compound CC(C)OC(=O)[C@H](C)N[P@](=O)(CO[C@H](C)Cn1cnc2c(N)ncnc21)Oc1ccccc1 [Tenofovir alafenamide (TAF), Tenofovir alafenamide] , what is its reported CC50?
Reply: > 50 µM

----------
# System: SARS-CoV-2-Nluc
# Method notes: microbe, parasite or virus in culture
# Type: cell-based
# Condition summary: Severe acute respiratory syndrome coronavirus 2, read-out: EC50 (µM) Replicate 2
Each entry below carries its recorded EC50.

Task item: Give its EC50 value. Item: CC(C)(C)NC(=O)[C@@H]1CN(Cc2cccnc2)CCN1C[C@@H](O)C[C@@H](Cc1ccccc1)C(=O)N[C@H]1c2ccccc2C[C@H]1O [Indinavir]
Reply: > 10 µM

Task item: Would you mind doing CCOc1nc(N)nc2c1ncn2[C@@H]1O[C@@H]2COP(=O)(OC(C)C)O[C@H]2[C@@]1(C)F (some centres unmarked) [PSI-352938] as well?
Reply: > 10 µM

Task item: And what about the compound CC[C@@H]1C[C@]1(NC(=O)[C@@H]1C[C@@H](Oc2cc(-c3csc(NC(C)C)n3)nc3c(Cl)c(OCCN4CCOCC4)ccc23)CN1C(=O)[C@@H](NC(=O)O[C@@H]1C[C@@H]2C[C@@H]2C1)C(C)(C)C)C(=O)O [GS-9451] ?
Reply: > 10 µM

Task item: Next compound: C=C1[C@H](CO)[C@@H](O)C[C@@H]1n1cnc2c(=O)[nH]c(N)nc21 [Entecavir]
Reply: > 10 µM

Task item: Same question for CCC(CC)O[C@@H]1C=C(C(=O)O)C[C@H](N)[C@H]1NC(C)=O [Oseltamivir carboxylate] please.
Reply: > 10 µM

Task item: Next up: COc1ccc2c(O[C@@H]3C[C@H]4C(=O)N[C@]5(P(=O)(O)Cc6c(F)cccc6F)C[C@H]5CCCCCCC[C@H](NC(=O)OC5CCCC5)C(=O)N4C3)cc(-c3csc(NC(C)C)n3)nc2c1Cl [GS-9256]
Reply: > 10 µM

Task item: Would you mind doing CC(C)CN(C[C@@H](O)[C@H](Cc1ccccc1)NC(=O)O[C@H]1CO[C@H]2OCC[C@H]21)S(=O)(=O)c1ccc(N)cc1 [Darunavir] as well?
Reply: > 10 µM

Task item: Query Cc1c(O)cccc1C(=O)N[C@@H](CSc1ccccc1)[C@H](O)CN1C[C@H]2CCCC[C@H]2C[C@H]1C(=O)NC(C)(C)C [Nelfinavir] next
Reply: 0.993 µM

Task item: And CC#CC(=O)N1CC[C@@H](n2c(=O)n(-c3ccc(Oc4ccccc4)cc3)c3c(N)ncnc32)C1 [Tirabrutinib] ?
Reply: > 10 µM

Task item: What would you report for Cc1cc(/C=C/C#N)cc(C)c1Nc1ccnc(Nc2ccc(C#N)cc2)n1 [Rilpivirine] ?
Reply: 8.53 µM

Task item: Next compound: CC1=CC[C@H](C(=O)N(c2cc(C#CC(C)(C)C)sc2C(=O)O)[C@H]2CC[C@](O)(CO[C@H]3CCOC3)CC2)CC1 [Radalbuvir]
Reply: > 10 µM

Task item: Param item: CC(C)OC(=O)[C@H](C)N[P@](=O)(CO[C@H](C)Cn1cnc2c(N)ncnc21)Oc1ccccc1 [Tenofovir alafenamide (TAF), Tenofovir alafenamide]
Reply: > 10 µM

Task item: # repeat for CCOC(=O)/C=C/[C@H](C[C@@H]1CCNC1=O)NC(=O)[C@@H](CC(=O)[C@@H](NC(=O)c1cc(C)on1)C(C)C)Cc1ccc(F)cc1 [Rupintrivir]
Reply: 2.2 µM

Task item: Same for CCN(CC)CCCC(C)Nc1ccnc2cc(Cl)ccc12 (centres unmarked) [Chloroquine]
Reply: 1.57 µM
